- Tested on: HCoV-229E
- Design: species or system Huh-7; HTS, protection from HCoV-229E induced cell death, luminescent cell viability (CellCounting-Lite 2.0), inhibition rate
- COND: 24 h post infection, 1 h compound pre-incubation; 10 µM; inhibitor
About 95 (3%) of roughly 3,300 compounds showed an effect of 50% or more. Shown is part of a subset that was picked to be rich in strong results.

# MOLECULE, SYSTEM TESTED, UNIT STRING, 229E Inhibition rate
records = [
    ("Cc1c(N)nc([C@H](CC(N)=O)NC[C@H](N)C(N)=O)nc1C(=O)N[C@H](C(=O)N[C@H](C)[C@@H](O)[C@H](C)C(=O)N[C@H](C(=O)NCCc1nc(-c2nc(C(=O)NCCC[S+](C)C)cs2)cs1)[C@@H](C)O)[C@@H](O[C@@H]1O[C@@H](CO)[C@@H](O)[C@H](O)[C@@H]1O[C@H]1O[C@H](CO)[C@@H](O)[C@H](OC(N)=O)[C@@H]1O)c1cnc[nH]1 [Bleomycin (sulfate)]", "HCoV-229E", "%", 12.9),
    ("O=C(/C=C/c1ccc(O[C@@H]2O[C@H](CO)[C@@H](O)[C@H](O)[C@H]2O[C@@H]2OC[C@](O)(CO)[C@H]2O)cc1)c1ccc(O)cc1O [Isoliquiritin apioside]", "HCoV-229E", "%", 63.8),
    ("C[C@H]1CC[C@@H]2[C@@H](C)[C@H]3[C@H](C[C@H]4[C@@H]5CC=C6C[C@@H](O)CC[C@]6(C)[C@H]5CC[C@]34C)N2C1 [Solanidine]", "HCoV-229E", "%", 24.2),
    ("COC(=O)C1=CO[C@@H](O[C@@H]2O[C@H](CO)[C@@H](O)[C@H](O)[C@H]2O)[C@H]2[C@@H]1C=C[C@@]2(O)CO [Gardenoside]", "HCoV-229E", "%", 10.6),
]
